Answer each item with its documented SH2 binding enrichment.
target: Grb2 SH2 (UniProt P62993); test: SH2 binding enrichment of the phosphorylated peptide, bacterial display (enrichment ratio); higher = better substrate or ligand; peptides without Tyr show the background;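 further: peptide library displayed on the E. coli surface as eCPX fusions, selected cells deep-sequenced, score is each peptide's frequency after selection divided by its frequency in the input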
Sequence (P62993 whole entry, looked up, the tested form may be a part): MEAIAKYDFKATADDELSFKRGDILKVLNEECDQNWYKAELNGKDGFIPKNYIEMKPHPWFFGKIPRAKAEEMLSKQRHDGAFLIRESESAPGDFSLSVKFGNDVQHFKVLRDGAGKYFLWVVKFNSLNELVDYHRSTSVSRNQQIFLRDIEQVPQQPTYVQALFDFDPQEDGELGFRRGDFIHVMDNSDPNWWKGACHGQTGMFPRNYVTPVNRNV
Give bare numbers.

sequence text	SH2 binding enrichment
VNKIYHPDFIV [LIG3_Y768_Y768H]	0.747

Hi there! I need SH2 binding enrichment for each item below, if you can.
1. ETGEPYRLSPE [EIF4G1_Y311]
2. RKVAQYMLENE [SLC16A6_Y224_E221V]
3. EYGFRYELVQY [UGGT2_Y1289]

## Output
1. 0.883
2. 0.697
3. 0.768
